- System: ASK1;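 further: KINOMEscan kinase panel screen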
- Construct: gene MAP3K5
- CONDITIONS USED: concentration: 1 μM, replicates: in singlicate; n = 1
Respond with Fulfilled for %Inh values of 6% and above, Not fulfilled for values below.

- COMPOUND: "Cn1cnc2c(N)ncnc21"
  GROUP: "Not fulfilled"
- COMPOUND: "Fc1ccc(-c2nc3n(c2-c2ccncc2)CCS3)cc1"
  GROUP: "Not fulfilled"
- COMPOUND: "Nc1ncnc2occ(-c3ccc4c(c3)CCN4C(=O)Cc3cc(F)ccc3F)c12"
  GROUP: "Not fulfilled"
- COMPOUND: "COC(=O)c1cccc(NC(=O)NC2CCN(c3ccnc(Nc4ccc(OC)cc4)n3)C2)c1 (centres unmarked)"
  GROUP: "Fulfilled"
- COMPOUND: "c1ccc(-c2ccnc3[nH]ccc23)cc1"
  GROUP: "Not fulfilled"

Q) Textbook exercise: given the entry Cn1cncc1C(=O)NC1CCN(c2ccnc(Nc3ccc(F)cc3)n2)C1 (centres unmarked) , state whether its %Inh is greater than or equal to 6%.
A) Fulfilled

Q) Textbook exercise: given the entry `FC(F)(F)c1ccccc1-c1cc(-c2c[nH]nc2-c2ccccn2)ccn1` , state whether its %Inh is greater than or equal to 6%.
A) Fulfilled

Q) Textbook exercise: given the entry COc1ccc(Nc2nccc(N3CCC(NC(=O)c4cc5ccccc5s4)C3)n2)cc1 (centres unmarked) , state whether its %Inh is greater than or equal to 6%.
A) Fulfilled

Q) Textbook exercise: given the entry COC(=O)C(Cc1ccccc1)NC(=O)NC1CCN(c2ccnc(Nc3ccc(F)cc3)n2)C1 (centres unmarked) , state whether its %Inh is greater than or equal to 6%.
A) Not fulfilled

Q) Textbook exercise: given the entry COc1ccc(Nc2nccc(N3CCC(NC(=O)C(C)c4ccc(Cl)cc4)CC3)n2)cc1 (centres unmarked) , state whether its %Inh is greater than or equal to 6%.
A) Not fulfilled

Q) Textbook exercise: given the entry `CN1c2ccc(-c3ccc(C(N)=O)cc3)cc2-c2[nH]ncc2S1(=O)=O` , state whether its %Inh is greater than or equal to 6%.
A) Not fulfilled

Q) Textbook exercise: given the entry COc1ccc(Nc2nccc(N3CCC(NC(=O)C(C)c4ccc(Cl)cc4)C3)n2)cc1 (centres unmarked) , state whether its %Inh is greater than or equal to 6%.
A) Fulfilled

Q) Textbook exercise: given the entry `CNc1nc(-c2ccc3c(N)n[nH]c3c2)cc(N2C[C@@H](C(=O)NC3CCCCC3)OC[C@H]2C)n1` , state whether its %Inh is greater than or equal to 6%.
A) Fulfilled

Q) Textbook exercise: given the entry `Nc1nccc(-c2c(-c3ccc(F)cc3)ncn2C2CCN(Cc3ccccc3)CC2)n1` , state whether its %Inh is greater than or equal to 6%.
A) Not fulfilled

Q) Textbook exercise: given the entry `NS(=O)(=O)c1cccc(N/C=C2\C(=O)Nc3ccc(S(=O)(=O)Cc4c(Cl)cccc4Cl)cc32)c1` , state whether its %Inh is greater than or equal to 6%.
A) Not fulfilled

Q) Textbook exercise: given the entry `CC(C)c1ccc(O)cc1Nc1ccnc2ccc(C(F)(F)F)cc12` , state whether its %Inh is greater than or equal to 6%.
A) Not fulfilled

Q) Textbook exercise: given the entry `CC(=O)c1c(C)c2cnc(Nc3ccn(C)n3)nc2n(C2CCCC2)c1=O` , state whether its %Inh is greater than or equal to 6%.
A) Not fulfilled

Q) Textbook exercise: given the entry `COc1cccc(C2=C(Nc3cc(Cl)c(O)c(Cl)c3)C(=O)NC2=O)c1` , state whether its %Inh is greater than or equal to 6%.
A) Not fulfilled

Q) Textbook exercise: given the entry `Cc1ccc(NC(=O)Nc2ccccc2F)cc1-c1ccc(C(=O)Nc2ccncc2)cc1` , state whether its %Inh is greater than or equal to 6%.
A) Fulfilled

Where do the numbers come from? From paper PMC5540273.
